Data credit: ChEMBL document CHEMBL3769401

What IC50 was measured for each of the following?
- experimental system: Urokinase-type plasminogen activator (Homo sapiens, UniProt P00749)
- assay info: Inhibition of recombinant uPA (unknown origin) using Biophen CS-61(44) as substrate
Quick note: give the figure in µM, leave out the unit.

Tell me IC50 reported for `N=C(N)Nc1ccc(CP(=O)(Oc2ccccc2)Oc2ccccc2)cc1`
1.4

Provide only the value of recorded IC50 for Nc1ccc(CC(NC(=O)OCc2ccccc2)P(=O)(Oc2ccccc2)Oc2ccccc2)cc1 (stereo unspecified)
19.8

Give me measured IC50, please, for this compound: N=C(N)Nc1ccc(C(NC(=O)OCc2ccccc2)P(=O)(Oc2ccccc2)Oc2ccccc2)cc1 (stereo unspecified)
2.7

---

- experimental system: Kallikrein-2 (Homo sapiens, UniProt P20151)
- Sequence (P20151 whole entry): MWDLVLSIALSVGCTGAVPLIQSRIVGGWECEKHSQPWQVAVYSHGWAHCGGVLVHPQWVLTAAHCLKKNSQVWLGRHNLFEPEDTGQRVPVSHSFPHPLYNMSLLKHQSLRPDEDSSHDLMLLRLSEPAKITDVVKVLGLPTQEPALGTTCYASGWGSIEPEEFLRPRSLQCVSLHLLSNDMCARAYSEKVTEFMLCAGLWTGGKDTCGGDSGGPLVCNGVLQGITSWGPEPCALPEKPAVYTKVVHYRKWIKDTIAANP
- assay info: Inhibition of human recombinant KLK2 expressed in Escherichia coli using Bachem I-1295 as substrate preincubated for 15 mins followed by substrate addition by microplate reader analysis
So I've got a bunch of compounds here, and I need their IC50 values.

Answer briefly: IC50 recorded on Kallikrein-2 (Homo sapiens, UniProt P20151) for N=C(N)c1ccc(C(NC(=O)OCc2ccccc2)P(=O)(Oc2ccccc2)Oc2ccccc2)cc1 (stereo unspecified)
> 2.5 µM

Fill: IC50 (Kallikrein-2 (Homo sapiens, UniProt P20151)) for this compound Nc1ccc(C(NC(=O)OCc2ccccc2)P(=O)(Oc2ccccc2)Oc2ccccc2)cc1 (stereo unspecified)
> 2.5 µM

Enter IC50 (test system Kallikrein-2 (Homo sapiens, UniProt P20151)) for O=C(NC(c1ccc(O)cc1)P(=O)(Oc1ccccc1)Oc1ccccc1)OCc1ccccc1 (stereo unspecified)
> 2.5 µM

Given N=C(N)NCCCC(NC(=O)OCc1ccccc1)P(=O)(Oc1ccccc1)Oc1ccccc1 (stereo unspecified) , report its IC50 on Kallikrein-2 (Homo sapiens, UniProt P20151).
> 2.5 µM

System Kallikrein-2 (Homo sapiens, UniProt P20151). Read-out IC50. Item NCCCC(NC(=O)OCc1ccccc1)P(=O)(Oc1ccccc1)Oc1ccccc1 (stereo unspecified) . Report value.
> 2.5 µM

Lab note: Kallikrein-2 (Homo sapiens, UniProt P20151) assay, enter IC50 for Nc1ccc(CC(NC(=O)OCc2ccccc2)P(=O)(Oc2ccccc2)Oc2ccccc2)cc1 (stereo unspecified) here
> 10 µM

---

- experimental system: Urokinase-type plasminogen activator (Homo sapiens, UniProt P00749)
- assay info: Inhibition of recombinant uPA (unknown origin) using Biophen CS-61(44) as substrate
pIC50: −log10 of the molar value.
readout: pIC50

Please report pIC50 with Urokinase-type plasminogen activator (Homo sapiens, UniProt P00749) for item O=C(NC(c1ccc(O)cc1)P(=O)(Oc1ccccc1)Oc1ccccc1)OCc1ccccc1 (stereo not drawn) .
< 5.00

With Urokinase-type plasminogen activator (Homo sapiens, UniProt P00749) as the test system, provide measured pIC50 for this molecule: NCCCC(NC(=O)OCc1ccccc1)P(=O)(Oc1ccccc1)Oc1ccccc1 (stereo not drawn)
< 3.60

Retrieve pIC50 on Urokinase-type plasminogen activator (Homo sapiens, UniProt P00749); query Nc1ccc(C(NC(=O)OCc2ccccc2)P(=O)(Oc2ccccc2)Oc2ccccc2)cc1 (stereo not drawn)
< 5.00
